Recorded pEC50 by entry
test-target: human activated kallikrein enzyme (Homo sapiens)
Sequence (P03952 391-638 limits assumed): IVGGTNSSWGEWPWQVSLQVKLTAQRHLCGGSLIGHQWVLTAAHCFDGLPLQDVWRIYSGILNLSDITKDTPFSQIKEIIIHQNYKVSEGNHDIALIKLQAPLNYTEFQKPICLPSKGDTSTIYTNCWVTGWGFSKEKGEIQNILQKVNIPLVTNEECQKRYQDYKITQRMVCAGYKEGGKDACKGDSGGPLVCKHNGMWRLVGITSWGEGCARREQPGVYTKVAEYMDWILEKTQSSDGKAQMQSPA
Sequence (P03952 20-390 partner limits assumed): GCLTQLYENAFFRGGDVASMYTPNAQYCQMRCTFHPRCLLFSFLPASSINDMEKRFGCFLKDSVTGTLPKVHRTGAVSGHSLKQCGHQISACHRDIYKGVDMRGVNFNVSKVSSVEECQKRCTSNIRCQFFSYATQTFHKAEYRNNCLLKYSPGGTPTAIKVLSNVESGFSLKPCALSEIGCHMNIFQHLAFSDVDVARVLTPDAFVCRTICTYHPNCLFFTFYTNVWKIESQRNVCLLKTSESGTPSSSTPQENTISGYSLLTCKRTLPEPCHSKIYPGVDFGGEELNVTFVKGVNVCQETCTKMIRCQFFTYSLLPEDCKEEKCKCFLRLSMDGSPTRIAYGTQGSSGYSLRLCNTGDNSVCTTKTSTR
method-notes: Inhibition of activated plasma kallikrein, fluorogenic peptide substrate (PFR-AMC) assay, 500 pM enzyme format
experimental-setup: 500 pM activated kallikrein, 300 uM PFR-AMC, 30 min preincubation, 10 min reaction, room temperature; read-out: Primary Dose Response Assay: Average EC50
Experimental: Compounds were evaluated for inhibition of the human activated kallikrein enzyme in two formats of an assay employing a fluorogenic peptide substrate. […] After initiation with substrate, reactions were incubated for 10 min at room temperature and fluorescence emission at 460 nm from 380 nm excitation measured with a microplate reader. […]
pEC50: −log10 of the molar value.

Cc1cc(N2CC(=O)N(C)C2=O)c2nc(COc3ccc4c(N5CC6(COC6)C5)cc([C@H]5C[C@@H]5c5nccc(C)n5)nc4c3)cn2c1; ≥ 9.00

Please examine the following record next.
Give the measured pEC50 of Cc1ccnc([C@H]2C[C@@H]2c2ccc3ncc(N(C)Cc4cn5cc(C6CC6)cc(N6CC(=O)N(C)C6=O)c5n4)cc3c2)n1 (racemic) .
5.19 to 7.00

Data provenance is patent US20240199613A1.
